Answer each item with its documented LD50.
- Test Details: Acute toxicity (LD50) in mouse
- Condition Set: in vivo, intravenous administration

>>> df
                                 smiles_str    reading
0  COc1ccc(/C=C/CCCCOc2cccc(OCCCCC(=O)O)c2CCC(=O)O)cc1  260 mg/kg

Moving on to the next compound.
Query: LD50; subject: COc1ccc(/C=C/CCCCOc2cccc(OCCCCC(=O)N(C)C)c2CCC(=O)O)cc1
175 mg/kg

----------
- System Name: human PMNL LTB4 receptor (Homo sapiens)
- Construct: endogenous in cells; host or cells: human polymorphonuclear leukocytes (PMNL), intact cells
- Sequence (Q15722 whole entry): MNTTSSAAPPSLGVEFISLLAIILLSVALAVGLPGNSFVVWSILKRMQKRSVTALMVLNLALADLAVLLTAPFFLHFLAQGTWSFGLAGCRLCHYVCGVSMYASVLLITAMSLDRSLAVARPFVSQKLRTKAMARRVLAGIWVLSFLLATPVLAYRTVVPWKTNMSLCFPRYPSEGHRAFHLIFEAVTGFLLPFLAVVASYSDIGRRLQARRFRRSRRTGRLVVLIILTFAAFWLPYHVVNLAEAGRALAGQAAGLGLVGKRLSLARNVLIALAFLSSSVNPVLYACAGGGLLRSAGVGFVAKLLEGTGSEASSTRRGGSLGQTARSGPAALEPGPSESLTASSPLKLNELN
- Test Details: Binding affinity of 3H-LTB4 antagonist to human PMNL LTB4 receptor (inhibition of specific 3H-LTB4 binding)
- Condition Set: 1 nM 3H-LTB4, human PMNLs, 4° C., 20 min
- Experimental: Human PMNLS (1×10^7 cells) were incubated with 1 nM ^3 H-LTB4 in Hanks balanced salt solution (1 ml) at 4° C. for 20 min. in the presence or absence of increasing concentrations of unlabeled LTB4 or various compounds. […] The radioactivity retained in the filter was determined by liquid scintillation counting. […] The inhibitory effect of specific ^3 H-LTB4 binding was calculated from the following equation. […]
Answer each item with its documented IC50.
One number for each entry, in nM.

Worked cases, answers included:
                                   compound                              system_name  property_label  reading
0  CCCCCCC(=O)Nc1ccc(OCCCC/C=C/c2ccc(OC)cc2)c(CCC(=O)O)c1  human PMNL LTB4 receptor (Homo sapiens)            IC50      170
1  COc1ccc(/C=C/CCCCOc2ccc(N3C(=O)c4ccccc4C3=O)cc2CCC(=O)O)cc1  human PMNL LTB4 receptor (Homo sapiens)            IC50       45
2  CCCCCCCCC(O)/C=C/CCCCOc1cccc(OCCCCC(=O)N(C)C)c1CCC(=O)O (stereo not shown)  human PMNL LTB4 receptor (Homo sapiens)            IC50       18

Moving on to the next compound.
Query: IC50; subject: CCCCCCCCC(O)/C=C/CCCCOc1ccc(NC(=O)CCCC(=O)N(C)C)cc1CCC(=O)O (stereo not shown)
20

# credit: patent US5256686A
